experiment: Lethal dose in mice after perorla administration; assay type: toxicity, organism-based; settings: mouse, in vivo, po
Endpoint Label: LD50

Please give the measured LD50 for this compound: Clc1cc2c(cc1Cl)Nc1cscc1C(N1CCNCC1)=N2
> 800 mg/kg

Please give the measured LD50 for this compound: OCCN1CCN(C2=Nc3cc(F)ccc3Nc3ccsc32)CC1
> 400 mg/kg

Please give the measured LD50 for this compound: OCCN1CCN(CC/C=C2\c3ccccc3Sc3ccc(C(F)(F)F)cc32)CC1
> 400 mg/kg

Please give the measured LD50 for this compound: O=C(CCCN1CCC(O)(c2ccc(Cl)cc2)CC1)c1ccc(F)cc1
> 100 mg/kg

Please give the measured LD50 for this compound: Fc1ccc2c(c1)N=C(N1CCN(Cc3ccccc3)CC1)c1sccc1N2
> 400 mg/kg

###

experiment: Lethal dose in mice after perorla administration; type: toxicity, organism-based; conditions: mouse, in vivo, po
Below, each entry is listed with its recorded LD50.

Solved entries:
> print(dat)
                                 smiles.str  experimental.result
1  CN1CCN(C2=Nc3cc(C(F)(F)F)ccc3Nc3cscc32)CC1          > 200 mg/kg
2    OCCCN1CCN(C2=Nc3cc(F)ccc3Nc3ccsc32)CC1          > 400 mg/kg
3       Clc1ccc2c(c1)N=C(N1CCNCC1)c1cscc1N2          > 400 mg/kg
4       CN1CCN(C2=Nc3cc(F)ccc3Nc3ccsc32)CC1           > 25 mg/kg

With those in mind, consider the next compound.
Please give the measured LD50 for this compound: CCOC(=O)N1CCN(C2=Nc3cc(F)ccc3Nc3ccsc32)CC1
> 800 mg/kg

The origin of these recorded values is ChEMBL document CHEMBL1121490.
